Measured IC50 values are reported for all entries that follow.
target: ATP-binding cassette sub-family C member 3 (Homo sapiens)
Sequence (O15438 whole entry): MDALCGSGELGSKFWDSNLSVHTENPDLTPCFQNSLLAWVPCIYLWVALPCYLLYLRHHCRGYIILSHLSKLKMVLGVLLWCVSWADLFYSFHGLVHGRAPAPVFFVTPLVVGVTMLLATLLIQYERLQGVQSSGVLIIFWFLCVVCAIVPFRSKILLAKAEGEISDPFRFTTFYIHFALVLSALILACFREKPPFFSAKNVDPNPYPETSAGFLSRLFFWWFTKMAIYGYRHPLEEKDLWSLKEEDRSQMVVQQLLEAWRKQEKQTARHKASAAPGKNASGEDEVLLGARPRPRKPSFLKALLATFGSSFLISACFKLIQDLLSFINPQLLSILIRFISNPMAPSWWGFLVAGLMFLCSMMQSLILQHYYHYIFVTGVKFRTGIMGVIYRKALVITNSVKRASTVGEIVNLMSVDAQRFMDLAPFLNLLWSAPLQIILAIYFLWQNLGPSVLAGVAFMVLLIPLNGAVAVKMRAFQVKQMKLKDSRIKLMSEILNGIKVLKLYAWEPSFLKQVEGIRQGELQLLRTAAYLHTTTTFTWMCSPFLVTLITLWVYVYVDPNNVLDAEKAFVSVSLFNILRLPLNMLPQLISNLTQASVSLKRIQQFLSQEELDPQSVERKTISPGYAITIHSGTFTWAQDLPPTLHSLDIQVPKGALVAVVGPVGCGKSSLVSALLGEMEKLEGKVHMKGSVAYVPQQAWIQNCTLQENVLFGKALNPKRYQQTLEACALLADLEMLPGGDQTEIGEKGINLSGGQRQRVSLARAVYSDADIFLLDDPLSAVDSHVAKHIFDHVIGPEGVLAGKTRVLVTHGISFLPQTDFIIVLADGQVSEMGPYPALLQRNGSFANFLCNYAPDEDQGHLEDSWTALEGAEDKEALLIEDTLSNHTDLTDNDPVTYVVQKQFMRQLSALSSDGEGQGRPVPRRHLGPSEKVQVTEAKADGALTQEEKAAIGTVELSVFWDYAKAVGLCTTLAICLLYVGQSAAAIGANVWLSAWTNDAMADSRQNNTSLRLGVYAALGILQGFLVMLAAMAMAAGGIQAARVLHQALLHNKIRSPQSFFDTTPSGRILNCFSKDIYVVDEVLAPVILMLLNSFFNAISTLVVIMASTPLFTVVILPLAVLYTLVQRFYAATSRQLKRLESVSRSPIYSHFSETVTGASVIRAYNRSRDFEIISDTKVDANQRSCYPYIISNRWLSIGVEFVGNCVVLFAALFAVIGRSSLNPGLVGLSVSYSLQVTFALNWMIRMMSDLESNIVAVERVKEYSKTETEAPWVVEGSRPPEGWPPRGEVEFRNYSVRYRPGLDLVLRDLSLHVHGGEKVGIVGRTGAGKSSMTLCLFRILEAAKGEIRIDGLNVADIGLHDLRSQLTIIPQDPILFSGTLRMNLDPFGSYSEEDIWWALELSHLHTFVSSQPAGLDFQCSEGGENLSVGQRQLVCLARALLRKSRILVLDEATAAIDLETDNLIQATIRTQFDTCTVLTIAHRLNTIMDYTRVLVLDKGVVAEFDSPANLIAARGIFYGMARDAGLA
Just the number please, in µM, no unit attached.

[[record]]
compound = "CCCN(C)C(=O)OCc1c(-c2ccc(O[C@H]3CCC[C@H](C(=O)O)C3)c(C)n2)nnn1C [ADMILPARANT]"
measurement_name = "IC50"
endpoint_result = 66


Next item in the queue.
Input line: API: value(readout=IC50, system=ATP-binding cassette sub-family C member 3 (Homo sapiens)) for record Cc1noc(-c2ccc(-c3ccc(C4(C(=O)O)CC4)cc3)cc2)c1NC(=O)O[C@H](C)c1ccccc1 [BMS-986020]
Output line: 22

---

assay: Plasma clearance in CD-1 mouse at 3 mg/kg, po or 1 mg/kg, iv measured up to 24 hrs by LC-MS/MS analysis; format: ADME, organism-based
MEASUREMENT_NAME: clearance (mL/min/kg)
I only need the number, in mL/min/kg, no unit after it.

[[record]]
compound = "CCCN(C)C(=O)OCc1c(-c2ccc(O[C@H]3CCC[C@H](C(=O)O)C3)c(C)n2)nnn1C [ADMILPARANT]"
measurement_name = "clearance"
readout_unit = "mL/min/kg"
endpoint_result = 37


Now, please, on to the next compound.
Input line: Quick one: clearance of Cc1nc(-c2nnn(C)c2COC(=O)N(C)CC2CCC2)ccc1O[C@H]1CCC[C@H](C(=O)O)C1 ?
Output line: 118
